Target: UniProtKB P41144
Sequence (P41144 whole entry): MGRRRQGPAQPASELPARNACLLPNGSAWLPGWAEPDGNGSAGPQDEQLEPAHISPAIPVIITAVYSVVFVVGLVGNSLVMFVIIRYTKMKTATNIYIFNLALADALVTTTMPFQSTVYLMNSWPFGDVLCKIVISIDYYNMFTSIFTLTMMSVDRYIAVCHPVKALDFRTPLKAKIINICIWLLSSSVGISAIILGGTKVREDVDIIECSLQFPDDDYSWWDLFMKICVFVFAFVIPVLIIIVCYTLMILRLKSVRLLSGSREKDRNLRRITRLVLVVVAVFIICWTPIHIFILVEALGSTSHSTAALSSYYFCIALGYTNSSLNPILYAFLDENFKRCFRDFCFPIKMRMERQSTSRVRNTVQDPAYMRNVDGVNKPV
pKi: −log10 of the molar value.
compounds and their reported pKi
OBSERVABLE: pKi

>>> quantitative_result("CCCC(=N)NCCCNC(=O)C(CC(C)C)NC(=O)CNC(=O)[C@]1(c2ccccc2)CC1CN1CC[C@@]2(C)c3cc(O)ccc3CC1C2C (stereo partly drawn)")
7.09
>>> quantitative_result("CCC(=N)NCCCCCCNC(=O)C(CC(C)C)NC(=O)[C@]1(c2ccccc2)CC1CN1CC[C@@]2(C)c3cc(O)ccc3CC1C2C (stereo partly drawn)")
6.93
>>> quantitative_result("CCC(=N)NCCCCNC(=O)C(CC(C)C)NC(=O)[C@]1(c2ccccc2)CC1CN1CC[C@@]2(C)c3cc(O)ccc3CC1C2C (stereo partly drawn)")
6.72
>>> quantitative_result("CC(C)CC(NC(=O)[C@]1(c2ccccc2)CC1CN1CC[C@@]2(C)c3cc(O)ccc3CC1C2C)C(=O)NCCCN (stereo partly drawn)")
6.43
>>> quantitative_result("CCC(=N)NCCCCCCNC(=O)C(CC(C)C)NC(=O)CNC(=O)[C@]1(c2ccccc2)CC1CN1CC[C@@]2(C)c3cc(O)ccc3CC1C2C (stereo partly drawn)")
7.33
>>> quantitative_result("CC(C)CC(NC(=O)[C@]1(c2ccccc2)CC1CN1CC[C@@]2(C)c3cc(O)ccc3CC1C2C)C(=O)NCCCCN=C(N)N (stereo partly drawn)")
6.60
>>> quantitative_result("CCCC(=N)NCCCCCNC(=O)C(CC(C)C)NC(=O)CNC(=O)[C@]1(c2ccccc2)CC1CN1CC[C@@]2(C)c3cc(O)ccc3CC1C2C (stereo partly drawn)")
7.19
>>> quantitative_result("CC(C)CC(NC(=O)[C@]1(c2ccccc2)CC1CN1CC[C@@]2(C)c3cc(O)ccc3CC1C2C)C(=O)NCCCCN (stereo partly drawn)")
6.42

====

Target: Opioid receptors; mu & kappa (UniProt P41145+P35372)
Sequence (P35372 whole entry, looked up): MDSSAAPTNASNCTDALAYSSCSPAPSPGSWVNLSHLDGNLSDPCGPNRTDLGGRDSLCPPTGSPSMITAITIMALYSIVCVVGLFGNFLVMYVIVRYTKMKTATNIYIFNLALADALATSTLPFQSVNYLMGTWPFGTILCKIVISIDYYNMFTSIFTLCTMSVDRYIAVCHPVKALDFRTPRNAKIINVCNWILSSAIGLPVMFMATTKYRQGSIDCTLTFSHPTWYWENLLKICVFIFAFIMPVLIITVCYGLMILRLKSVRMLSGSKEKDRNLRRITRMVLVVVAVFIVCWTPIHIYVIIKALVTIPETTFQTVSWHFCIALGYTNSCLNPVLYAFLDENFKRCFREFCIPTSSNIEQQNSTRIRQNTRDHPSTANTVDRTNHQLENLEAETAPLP
Sequence (P41145 whole entry, looked up): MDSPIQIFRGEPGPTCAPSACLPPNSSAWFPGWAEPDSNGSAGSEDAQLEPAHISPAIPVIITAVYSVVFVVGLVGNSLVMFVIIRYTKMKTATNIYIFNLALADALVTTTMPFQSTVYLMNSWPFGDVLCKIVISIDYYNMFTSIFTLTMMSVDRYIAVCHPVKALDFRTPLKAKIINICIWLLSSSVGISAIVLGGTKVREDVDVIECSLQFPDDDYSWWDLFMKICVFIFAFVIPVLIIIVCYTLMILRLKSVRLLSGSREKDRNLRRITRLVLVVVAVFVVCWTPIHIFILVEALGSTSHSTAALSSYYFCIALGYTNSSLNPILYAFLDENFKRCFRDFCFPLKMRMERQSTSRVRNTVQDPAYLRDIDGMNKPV
Experiment: Ratio of affinity towards mu and kappa opioid receptors
Assay type: protein assay
Rule: Selectivity ratio below 100 gives y. Equal to or above 100 gives n.

>>> class("CC(C)CC(NC(=O)[C@]1(c2ccccc2)CC1CN1CC[C@@]2(C)c3cc(O)ccc3CC1C2C)C(=O)NCCCCCCN (some centres undefined)")
"y"
>>> class("CCC(=N)NCCCCCCNC(=O)C(CC(C)C)NC(=O)[C@]1(c2ccccc2)CC1CN1CC[C@@]2(C)c3cc(O)ccc3CC1C2C (some centres undefined)")
"y"
>>> class("CC(C)CC(NC(=O)CNC(=O)[C@]1(c2ccccc2)CC1CN1CC[C@@]2(C)c3cc(O)ccc3CC1C2C)C(=O)NCCCCN (some centres undefined)")
"y"
>>> class("CCCCC(=N)NCCCNC(=O)C(CC(C)C)NC(=O)CNC(=O)[C@]1(c2ccccc2)CC1CN1CC[C@@]2(C)c3cc(O)ccc3CC1C2C (some centres undefined)")
"n"
>>> class("CCCC(=N)NCCCCCNC(=O)C(CC(C)C)NC(=O)CNC(=O)[C@]1(c2ccccc2)CC1CN1CC[C@@]2(C)c3cc(O)ccc3CC1C2C (some centres undefined)")
"n"
>>> class("CC(C)CC(NC(=O)CNC(=O)[C@]1(c2ccccc2)CC1CN1CC[C@@]2(C)c3cc(O)ccc3CC1C2C)C(=O)NCCCN=C(N)N (some centres undefined)")
"n"
>>> class("CCC(=N)NCCCCNC(=O)C(CC(C)C)NC(=O)[C@]1(c2ccccc2)CC1CN1CC[C@@]2(C)c3cc(O)ccc3CC1C2C (some centres undefined)")
"y"
>>> class("CC(C)CC(NC(=O)CNC(=O)[C@]1(c2ccccc2)CC1CN1CC[C@@]2(C)c3cc(O)ccc3CC1C2C)C(=O)NCCCCCCN=C(N)N (some centres undefined)")
"y"
>>> class("CCCC(=N)NCCCNC(=O)C(CC(C)C)NC(=O)CNC(=O)[C@]1(c2ccccc2)CC1CN1CC[C@@]2(C)c3cc(O)ccc3CC1C2C (some centres undefined)")
"n"
>>> class("CCCCC(=N)NCCCCCCNC(=O)C(CC(C)C)NC(=O)[C@]1(c2ccccc2)CC1CN1CC[C@@]2(C)c3cc(O)ccc3CC1C2C (some centres undefined)")
"y"
>>> class("CCC(=N)NCCCNC(=O)C(CC(C)C)NC(=O)CNC(=O)[C@]1(c2ccccc2)CC1CN1CC[C@@]2(C)c3cc(O)ccc3CC1C2C (some centres undefined)")
"y"
>>> class("CCCCC(=N)NCCCCNC(=O)C(CC(C)C)NC(=O)[C@]1(c2ccccc2)CC1CN1CC[C@@]2(C)c3cc(O)ccc3CC1C2C (some centres undefined)")
"y"
>>> class("CCCCC(=N)NCCCCCNC(=O)C(CC(C)C)NC(=O)[C@]1(c2ccccc2)CC1CN1CC[C@@]2(C)c3cc(O)ccc3CC1C2C (some centres undefined)")
"y"

====

molecules and their reported Ki
Target: Mu-type opioid receptor (Rattus norvegicus, UniProt P33535)
Sequence (P33535 whole entry): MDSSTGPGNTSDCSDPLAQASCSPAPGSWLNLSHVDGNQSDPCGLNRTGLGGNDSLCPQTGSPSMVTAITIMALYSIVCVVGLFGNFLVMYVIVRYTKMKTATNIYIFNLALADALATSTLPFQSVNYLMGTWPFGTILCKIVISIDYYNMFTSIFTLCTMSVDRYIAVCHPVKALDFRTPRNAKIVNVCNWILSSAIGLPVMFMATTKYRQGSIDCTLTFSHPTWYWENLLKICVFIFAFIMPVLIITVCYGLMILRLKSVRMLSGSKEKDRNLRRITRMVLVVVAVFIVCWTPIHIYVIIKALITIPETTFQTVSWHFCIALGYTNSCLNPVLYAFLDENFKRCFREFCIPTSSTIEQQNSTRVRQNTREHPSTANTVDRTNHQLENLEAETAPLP
Experiment: Displacement of [3H]diprenorphine from opioid receptor mu 1 on crude membrane fractions obtained from whole rat brain (minus cerebellum)
Assay type: tissue-based
OBSERVABLE: Ki (nM)

>>> quantitative_result("CCCC(=N)NCCCCCCNC(=O)C(CC(C)C)NC(=O)[C@]1(c2ccccc2)CC1CN1CC[C@@]2(C)c3cc(O)ccc3CC1C2C (some centres not stated)")
1900
>>> quantitative_result("CC(C)CC(NC(=O)[C@]1(c2ccccc2)CC1CN1CC[C@@]2(C)c3cc(O)ccc3CC1C2C)C(=O)NCCCCCCN (some centres not stated)")
3080
>>> quantitative_result("CCC(=N)NCCCCCNC(=O)C(CC(C)C)NC(=O)CNC(=O)[C@]1(c2ccccc2)CC1CN1CC[C@@]2(C)c3cc(O)ccc3CC1C2C (some centres not stated)")
4820
>>> quantitative_result("CCC(=N)NCCCCCNC(=O)C(CC(C)C)NC(=O)[C@]1(c2ccccc2)CC1CN1CC[C@@]2(C)c3cc(O)ccc3CC1C2C (some centres not stated)")
2210
>>> quantitative_result("CCCCC(=N)NCCCCCCNC(=O)C(CC(C)C)NC(=O)CNC(=O)[C@]1(c2ccccc2)CC1CN1CC[C@@]2(C)c3cc(O)ccc3CC1C2C (some centres not stated)")
2150
>>> quantitative_result("CCCC(=N)NCCCCNC(=O)C(CC(C)C)NC(=O)[C@]1(c2ccccc2)CC1CN1CC[C@@]2(C)c3cc(O)ccc3CC1C2C (some centres not stated)")
2280
>>> quantitative_result("CC[C@H](C)[C@H](NC(=O)[C@H](CCCN=C(N)N)NC(=O)[C@H](CCCN=C(N)N)NC(=O)[C@]1(c2ccccc2)C[C@@H]1CN1CC[C@@]2(C)c3cc(O)ccc3CC1C2C)C(=O)OC (some centres not stated)")
4600

====

Species on record: Cavia porcellus
Test: Ratio of affinity towards delta to kappa opioid receptor
OBSERVABLE: Selectivity ratio

>>> quantitative_result("CC(C)CC(NC(=O)CNC(=O)[C@]1(c2ccccc2)CC1CN1CC[C@@]2(C)c3cc(O)ccc3CC1C2C)C(=O)NCCCCCCN (some centres undefined)")
76
>>> quantitative_result("CC(C)CC(NC(=O)CNC(=O)[C@]1(c2ccccc2)CC1CN1CC[C@@]2(C)c3cc(O)ccc3CC1C2C)C(=O)NCCCN (some centres undefined)")
37.6
>>> quantitative_result("CCCC(=N)NCCCCCCNC(=O)C(CC(C)C)NC(=O)CNC(=O)[C@]1(c2ccccc2)CC1CN1CC[C@@]2(C)c3cc(O)ccc3CC1C2C (some centres undefined)")
158
>>> quantitative_result("CCCC(=N)NCCCCCCNC(=O)C(CC(C)C)NC(=O)[C@]1(c2ccccc2)CC1CN1CC[C@@]2(C)c3cc(O)ccc3CC1C2C (some centres undefined)")
28.4

====

Target: Delta-type opioid receptor (Rattus norvegicus, UniProt P33533)
Sequence (P33533 whole entry): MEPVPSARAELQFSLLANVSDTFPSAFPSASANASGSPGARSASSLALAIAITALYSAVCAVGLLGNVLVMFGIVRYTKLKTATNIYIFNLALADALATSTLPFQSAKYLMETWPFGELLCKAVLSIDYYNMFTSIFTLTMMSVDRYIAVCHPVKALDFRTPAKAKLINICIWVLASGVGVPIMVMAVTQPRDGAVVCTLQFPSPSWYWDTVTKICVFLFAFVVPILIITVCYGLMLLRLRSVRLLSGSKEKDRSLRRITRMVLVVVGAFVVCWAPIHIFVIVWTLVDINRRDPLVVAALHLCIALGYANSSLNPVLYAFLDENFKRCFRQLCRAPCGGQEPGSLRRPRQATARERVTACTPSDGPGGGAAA
Assay: Tested for binding affinity by [3H]diprenorphine displacement for Opioid receptor delta 1 are carried on crude membrane fractions obtained from the whole rat brain minus cerebellum.
Assay type: tissue-based
pKi: −log10 of the molar value.
OBSERVABLE: pKi

>>> result("COC(=O)[C@]1(c2ccccc2)C[C@@H]1CN1CC[C@@]2(C)c3cc(O)ccc3CC1[C@@H]2C")
"< 4.60"

====

Molecular target: Mu-type opioid receptor (Rattus norvegicus)
Experiment: Displacement of [3H]diprenorphine from opioid receptor mu 1 on crude membrane fractions obtained from whole rat brain (minus cerebellum)
Assay type: tissue-based
molecules and their reported Ki
OBSERVABLE: Ki (µM)

>>> quantitative_result("CC(C)CC(NC(=O)[C@]1(c2ccccc2)CC1CN1CC[C@@]2(C)c3cc(O)ccc3CC1C2C)C(=O)NCCCCCN (stereo not given in full)")
3.25
>>> quantitative_result("CCC(=N)NCCCNC(=O)C(CC(C)C)NC(=O)CNC(=O)[C@]1(c2ccccc2)CC1CN1CC[C@@]2(C)c3cc(O)ccc3CC1C2C (stereo not given in full)")
10.9
>>> quantitative_result("CC(C)CC(NC(=O)CNC(=O)[C@]1(c2ccccc2)CC1CN1CC[C@@]2(C)c3cc(O)ccc3CC1C2C)C(=O)NCCCCN=C(N)N (stereo not given in full)")
6.16
>>> quantitative_result("CCCC(=N)NCCCCNC(=O)C(CC(C)C)NC(=O)CNC(=O)[C@]1(c2ccccc2)CC1CN1CC[C@@]2(C)c3cc(O)ccc3CC1C2C (stereo not given in full)")
6.78
>>> quantitative_result("CC(C)CC(NC(=O)CNC(=O)[C@]1(c2ccccc2)CC1CN1CC[C@@]2(C)c3cc(O)ccc3CC1C2C)C(=O)NCCCCCNC(=N)N (stereo not given in full)")
3.85
